What follows is a collection of Ki values obtained with UniProtKB P41145.
Sequence (P41145 whole entry): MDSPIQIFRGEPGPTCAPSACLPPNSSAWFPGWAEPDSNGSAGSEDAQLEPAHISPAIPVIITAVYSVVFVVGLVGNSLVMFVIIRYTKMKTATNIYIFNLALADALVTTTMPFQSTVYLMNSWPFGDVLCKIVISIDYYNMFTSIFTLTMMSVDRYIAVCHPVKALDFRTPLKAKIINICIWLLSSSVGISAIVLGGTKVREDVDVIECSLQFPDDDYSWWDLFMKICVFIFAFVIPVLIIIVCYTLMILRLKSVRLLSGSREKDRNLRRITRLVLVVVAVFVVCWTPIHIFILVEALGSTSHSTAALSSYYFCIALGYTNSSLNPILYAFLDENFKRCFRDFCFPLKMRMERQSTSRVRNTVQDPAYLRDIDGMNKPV

Use the examples below as a reference point.
{"columns": ["compound", "Ki"],
 "data": [
  ["CN[C@@]1(c2ccccc2Cl)CCCC[C@H]1NCCCN1CCOCC1 (relative stereo) [Example 16b]", "798 nM"],
  ["CN[C@]1(c2ccccc2Cl)CCCC[C@H]1NCCCN1CCN(C)CC1 (relative stereo) [Example 17a]", "> 1000 nM"],
  ["CN[C@@]1(c2ccccc2Cl)CCCC[C@H]1NCCCc1ccccc1 (relative stereo) [Example 15b]", "139 nM"],
  ["CN[C@@]1(c2ccccc2Cl)CCCC[C@H]1NCCCn1ccnc1 (relative stereo) [Example 12b]", "> 1000 nM"],
  ["CN[C@]1(c2ccccc2Cl)CCCC[C@H]1NCCCc1ccccc1 (relative stereo) [Example 15a]", "526 nM"]
]}

Using the record for CN[C@@]1(c2ccccc2Cl)CCCC[C@H]1NCCCN1CCN(C)CC1 (relative stereo) [Example 17b] , report its Ki. > 1000 nM

Subsequent entry: CN[C@@]1(c2ccccc2Cl)CCCC[C@H]1NC1CCCCC1 (relative stereo) [Example 18b] 608 nM

---

Reported pKi values follow for various compounds
molecular target: Sigma-1; test: Sigma-1 Ki determination by NIMH PDSP; format: binding
Units for pKi: none; it is -log10 of a concentration expressed in mol/L.

Use the examples below as a reference point.
{"columns": ["compound", "study system", "pKi"],
 "data": [
  ["CN[C@@]1(c2ccccc2Cl)CCCC[C@H]1NCCCN1CCN(C)CC1 (relative stereo) [Example 17b]", "Sigma-1", 7.14],
  ["CN[C@@]1(c2ccccc2Cl)CCCC[C@H]1NCCCn1ccnc1 (relative stereo) [Example 12b]", "Sigma-1", 6.64],
  ["CN[C@@]1(c2ccccc2Cl)CCCC[C@H]1NCCCN1CCOCC1 (relative stereo) [Example 16b]", "Sigma-1", 7.77],
  ["CN[C@]1(c2ccccc2Cl)CCCC[C@H]1NCCCN1CCN(C)CC1 (relative stereo) [Example 17a]", "Sigma-1", 7.72]
]}

Using the record for CN[C@]1(c2ccccc2Cl)CCCC[C@H]1NCCCc1ccccc1 (relative stereo) [Example 15a] , report its pKi. 5.65

Subsequent entry: CN[C@@]1(c2ccccc2Cl)CCCC[C@H]1NCCCc1ccccc1 (relative stereo) [Example 15b] 6.75
